// provenance: ChEMBL document CHEMBL4359916

Measured viability at 0.05 µM, listed per entry for reference.
System: SH-SY5Y
Assay details: Neuroprotective activity against NMDA-induced cell damage in human SH-SY5Y cells assessed as cell viability at 0.05 uM preincubated for 8 hrs followed by NMDA addition and further incubated for 30 mins and measured after 12 hrs by MTT assay relative to control
Format: functional
Assay setup: read-out: Activity
Don't forget the unit after the number, please.

N=C(NCc1ccc(O)cc1)[C@@H]1CCC(=O)N1Cc1ccccc1[N+](=O)[O-]: 20%
Cc1ccc(CN2C(=O)CC[C@H]2C(=N)NCc2ccccc2)cc1: 17.1%
COc1ccc(CNC(=N)[C@@H]2CCC(=O)N2Cc2ccccc2[N+](=O)[O-])cc1: 18.1%
COc1ccc(CNC(=N)[C@@H]2CCC(=O)N2Cc2ccc(C)cc2)cc1: 19.5%
COc1ccc(CN2C(=O)CC[C@H]2C(=N)NCc2ccccc2)cc1: 12.3%
N=C(NCc1ccc(O)cc1)[C@@H]1CCC(=O)N1Cc1ccccc1: 19.8%
N=C(NCc1ccccc1)[C@@H]1CCC(=O)N1Cc1ccc([N+](=O)[O-])cc1: 13.7%
N=C(NCc1ccccc1)[C@@H]1CCC(=O)N1Cc1ccccc1: 16.6%

Given the entry "Cl.N=C(NCc1ccc(O)cc1)[C@@H]1CCC(=O)N1Cc1ccc(F)cc1" , report its measured viability at 0.05 µM.
35.2%

====

Assay details: Clearance in human liver microsomes at 10 uM preincubated for 10 mins followed by addition of NADPH and measured for 5 to 60 mins
Format: ADME, Microsome
Measure name: CLint

Given the entry "Cl.N=C(NCc1ccc(O)cc1)[C@@H]1CCC(=O)N1Cc1ccc(F)cc1" , report its measured CLint.
< 9.6 µL/min/mg

====

Assay details: Half-life in human liver microsomes at 10 uM preincubated for 10 mins followed by addition of NADPH and measured for 5 to 60 mins
Format: ADME, Microsome
Measure name: half-life at 10 µM

Given the entry "Cl.N=C(NCc1ccc(O)cc1)[C@@H]1CCC(=O)N1Cc1ccc(F)cc1" , report its measured half-life at 10 µM.
> 2.42 h

====

Test system: SH-SY5Y
Assay details: Neuroprotective activity against NMDA-induced cell damage in human SH-SY5Y cells assessed as cell viability at 0.05 uM preincubated for 8 hrs followed by NMDA addition and further incubated for 30 mins and measured after 12 hrs by MTT assay relative to control
Type: functional
Assay setup: read-out: Activity
So basically, if viability at 0.05 µM comes in under 20% it's Condition met, and if it's 20% or more it's Condition not met.

These recorded examples may help you get a feel for the data.
N=C(NCc1ccccc1)[C@@H]1CCC(=O)N1Cc1ccc(F)cc1: Condition met
COc1ccc(CNC(=N)[C@@H]2CCC(=O)N2Cc2ccc(F)cc2)cc1: Condition met
COc1ccc(CNC(=N)[C@@H]2CCC(=O)N2Cc2ccccc2)cc1: Condition met

viability at 0.05 µM under 20%? Item: "COc1ccc(CNC(=N)[C@@H]2CCC(=O)N2Cc2ccc(OC)cc2)cc1"
Condition not met

viability at 0.05 µM under 20%? Item: C[C@@H]([C@@H](O)c1ccc(O)cc1)N1CCC(Cc2ccccc2)CC1 [(S)-IFENPRODIL]
Condition not met

viability at 0.05 µM under 20%? Item: "N=C(NCc1ccccc1)[C@@H]1CCC(=O)N1Cc1ccccc1[N+](=O)[O-]"
Condition met

====

Assay details: Metabolic stability in human liver microsomes assessed as parent compound remaining at 10 uM measured after 60 mins
Assay type: ADME, Microsome
Assay setup: read-out: Stability
Measure name: remaining at 1 h, 10 µM (%)
Could you give me the number in %? Just the number is fine.

Given the entry "Cl.N=C(NCc1ccc(O)cc1)[C@@H]1CCC(=O)N1Cc1ccc(F)cc1" , report its measured remaining at 1 h, 10 µM.
92.7

====

Tested on: SH-SY5Y
Assay details: Neuroprotective activity against NMDA-induced cell damage in human SH-SY5Y cells assessed as cell viability at 0.05 uM preincubated for 8 hrs followed by NMDA addition and further incubated for 30 mins and measured after 12 hrs by MTT assay relative to control
Type: functional
Assay setup: read-out: Activity
Measure name: viability at 0.05 µM (%)
Could you give me the number in %? Just the number is fine.

Cc1ccc(CN2C(=O)CC[C@H]2C(=N)NCc2ccc(O)cc2)cc1: 20.5
N=C(NCc1ccc(O)cc1)[C@@H]1CCC(=O)N1Cc1ccc([N+](=O)[O-])cc1: 25.9
COc1ccc(CN2C(=O)CC[C@H]2C(=N)NCc2ccc(O)cc2)cc1: 16

Here is another compound to look at.
Given the entry "COc1ccc(CNC(=N)[C@@H]2CCC(=O)N2Cc2ccc([N+](=O)[O-])cc2)cc1" , report its measured viability at 0.05 µM.
14.3
